Biological target: human cytoplasmic domain of IGF-1R (Homo sapiens)
Construct: The human cytoplasmic domain of IGF-1R was cloned by fusion with glutathione S-transferase (GST); made in house; host or cells: SF21 insect cells (baculovirus, pFastBac-GST)
Sequence (P08069 960-1367 limits assumed): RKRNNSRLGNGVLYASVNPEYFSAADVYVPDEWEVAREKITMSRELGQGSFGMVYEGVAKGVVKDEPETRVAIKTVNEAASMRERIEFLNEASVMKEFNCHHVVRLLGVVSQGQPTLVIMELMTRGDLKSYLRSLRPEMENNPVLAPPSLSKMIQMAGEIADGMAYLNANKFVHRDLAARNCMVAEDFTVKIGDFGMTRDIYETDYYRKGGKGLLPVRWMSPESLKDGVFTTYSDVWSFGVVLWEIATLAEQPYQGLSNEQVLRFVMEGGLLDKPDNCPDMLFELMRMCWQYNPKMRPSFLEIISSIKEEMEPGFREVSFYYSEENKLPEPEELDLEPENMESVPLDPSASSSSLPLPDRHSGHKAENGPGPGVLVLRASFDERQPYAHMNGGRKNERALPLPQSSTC
Assay: Kinase IGF-1R test: inhibition of autophosphorylation of the enzyme (HTRF)
Assay type: biochemical
Conditions: preincubation 30 minutes with 5 nM enzyme, ATP 120 μM; read-out: Test A 30′ IC50
Method: A) Experimental Protocol for the Kinase IGF-1R Test: The inhibitory activity of the compounds on IGF1R is determined by measuring the inhibition of autophosphorylation of the enzyme using a time-resolved fluorescence test (HTRF). The human cytoplasmic domain of IGF-1R was cloned by fusion with glutathione S-transferase (GST) in the baculovirus expression vector pFastBac-GST. […] The specific long-lasting signal of XL-665 is measured in a GENios Pro TECAN plate counter. […]
pIC50: −log10 of the molar value.
quantity.measured: pIC50

[Q] State pIC50 on human cytoplasmic domain of IGF-1R (Homo sapiens). Entry: CC1(C)C(=O)N(c2ccc(S(=O)(=O)C(F)(F)F)cc2)C(=O)N1Cc1ccnc(Nc2cncnc2)n1 [Example 16]
[A] 7.00 to 8.00

[Q] State pIC50 on human cytoplasmic domain of IGF-1R (Homo sapiens). Entry: CCCN(C)C(=O)Nc1cc(CN2C(=O)N(c3ccc(SC(F)(F)F)cc3)C(=O)C2(C)C)ccn1 [Example 35]
[A] 7.00 to 8.00

[Q] State pIC50 on human cytoplasmic domain of IGF-1R (Homo sapiens). Entry: CN(C)C(=O)c1cccc(Nc2cc(CN3C(=O)N(c4ccc(SC(F)(F)F)cc4)C(=O)C3(C)C)ccn2)c1 [Example 8]
[A] 7.00 to 8.00

[Q] State pIC50 on human cytoplasmic domain of IGF-1R (Homo sapiens). Entry: CC1(C)C(=O)N(c2ccc(SC(F)(F)F)cc2)C(=O)N1Cc1ccnc(Nc2cncnc2)c1 [Example 14]
[A] < 7.00

[Q] State pIC50 on human cytoplasmic domain of IGF-1R (Homo sapiens). Entry: CC1(C)C(=O)N(c2ccc(SC(F)(F)F)cc2)C(=O)N1Cc1ccnc(Nc2cc(Cl)ccc2Cl)c1 [Example 1]
[A] < 7.00

[Q] State pIC50 on human cytoplasmic domain of IGF-1R (Homo sapiens). Entry: CC1(C)C(=O)N(c2ccc(SC(F)(F)F)cc2)C(=O)N1Cc1ccnc(NC(=O)c2ccc(Cl)c(Cl)c2)c1 [Example 3]
[A] < 7.00

[Q] State pIC50 on human cytoplasmic domain of IGF-1R (Homo sapiens). Entry: CC1(C)C(=O)N(c2ccc(SC(F)(F)F)cc2)C(=O)N1Cc1ccnc(Nc2cccc(F)c2)c1 [Example 40C]
[A] < 7.00

Source of measurements: patent US20090082329A1
